Attribution: ChEMBL document CHEMBL1152260

tested on: Heat shock protein HSP90 (Homo sapiens, UniProt P07900+P08238)
protocol details: Inhibition of Hsp90 in human H1299 cells after 24 hrs by Akt luminex assay
Assay type: cell-based
measured endpoint: IC50 (µM)

[
  {
    "molecule": "Cc1cc(C(=O)N2CCC(F)(F)C2)ccc1[C@@H]1CCCN1C(=O)c1cc(Cl)c(O)cc1O",
    "tested on": "Heat shock protein HSP90 (Homo sapiens, UniProt P07900+P08238)",
    "unit spec": "µM",
    "IC50": 11
  },
  {
    "molecule": "Cc1cc(C(=O)N2CCC(F)(F)C2)ccc1[C@H]1CCCN1C(=O)c1cc(Cl)c(O)cc1O",
    "tested on": "Heat shock protein HSP90 (Homo sapiens, UniProt P07900+P08238)",
    "unit spec": "µM",
    "IC50": 0.027
  }
]

[P] COC(=O)c1ccc(C2CCCN2C(=O)c2cc(Cl)c(O)cc2O)c(C)c1 (stereo not drawn)
[Q] COc1ccccc1C1CCCN1C(=O)c1ccc(O)cc1O (stereo not drawn)
[R] Cc1cc(C(=O)N2CCC2)ccc1C1CCCN1C(=O)c1cc(Cl)c(O)cc1O (racemic)
[S] COC(=O)c1ccc(C)c(C2CCCN2C(=O)c2cc(Cl)c(O)cc2O)c1 (stereo not drawn)
Endpoint returns the given molecules ordered by ascending IC50. Your reply should list the labels following the order given in the request.
R, P, Q, S

====

tested on: Heat shock protein HSP90 (Homo sapiens, UniProt P07900+P08238)
protocol details: Inhibition of Hsp90 in human H1299 cells after 24 hrs by Akt luminex assay
Type: cell-based
measured endpoint: IC50

Some solved cases for reference:
[
  {
    "compound": "O=C(c1ccc(O)cc1O)N1CCCC1",
    "data value": "> 20 µM"
  },
  {
    "compound": "Cc1ccccc1[C@@H]1CCCN1C(=O)c1ccc(O)cc1O",
    "data value": "> 50 µM"
  },
  {
    "compound": "O=C(c1c(O)cc(O)cc1O)n1cccc1",
    "data value": "> 20 µM"
  }
]

For O=C(c1ccc(O)cc1O)N1CCCC1c1ccccn1 (configuration not stated) , what is its reported IC50?
> 20 µM

For Cc1cc(C(=O)N2CC(F)(F)C2)ccc1[C@@H]1CCCN1C(=O)c1cc(Cl)c(O)cc1O , what is its reported IC50?
> 20 µM

For O=C(c1ccc(O)cc1O)N1CCC(S(=O)(=O)c2ccccc2)C1 (configuration not stated) , what is its reported IC50?
> 50 µM

For O=C(c1ccc(O)cc1O)n1cccc1 , what is its reported IC50?
> 20 µM
